Source: paper PMC10873978

Provide the reported Viability % of each item.
- Tested on: A549 cell line
- experimentalProtocol: In vitro cytotoxic activity, MTT method, A549
- settings: A549, Conc. 0.391 µMol
Please don't drop the unit; write it after the number.

Given the entry CC(=O)C1C(c2ccc(N(C)C)cc2)c2c(C)nc3sc(C(=O)Nc4ccc(Cl)cc4)c(N)c3c2CC1(C)O (stereo not shown) , report its measured Viability %.
52.86%

Field entry: COc1cccc2c1C(=O)c1c(O)c3c(c(O)c1C2=O)C[C@@](O)(C(=O)CO)C[C@@H]3O[C@H]1C[C@H](N)[C@H](O)[C@H](C)O1
37.55%

Field entry: CCOC(=O)CSc1nc(C)c2c(c1C#N)CC(C)(O)C(C(C)=O)C2c1ccc(N(C)C)cc1 (stereo not shown)
78.86%

Field entry: CC(=O)C1C(c2ccc(N(C)C)cc2)c2c(C)nc(SCC(=O)Nc3ccccc3)c(C#N)c2CC1(C)O (stereo not shown)
86.09%

Field entry: CSc1nc(C)c2c(c1C#N)CC(C)(O)C(C(C)=O)C2c1ccc(N(C)C)cc1 (stereo not shown)
94.91%

Field entry: CC(=O)C1C(c2ccc(N(C)C)cc2)c2c(C)nc(SCC(N)=O)c(C#N)c2CC1(C)O (stereo not shown)
90.37%

Field entry: CC(=O)C1C(c2ccc(N(C)C)cc2)c2c(C)nc3sc(C(=O)Nc4ccccc4)c(N)c3c2CC1(C)O (stereo not shown)
89.23%

###

- Test system: A549 cell line
- experimentalProtocol: In vitro cytotoxic activity, MTT method, A549
- settings: A549, Conc. 3.125 µMol
Provide the reported Viability % of each item.
Please don't drop the unit; write it after the number.

// lookup Viability % | system=A549 cell line | key= CC(=O)C1C(c2ccc(N(C)C)cc2)c2c(C)nc3sc(C(=O)Nc4ccccc4)c(N)c3c2CC1(C)O (stereo not shown)
25.33%

Field entry: CSc1nc(C)c2c(c1C#N)CC(C)(O)C(C(C)=O)C2c1ccc(N(C)C)cc1 (stereo not shown)
46.82%

Field entry: CC(=O)C1C(c2ccc(N(C)C)cc2)c2c(C)nc(SCC(=O)Nc3ccccc3)c(C#N)c2CC1(C)O (stereo not shown)
46.67%

Field entry: COc1cccc2c1C(=O)c1c(O)c3c(c(O)c1C2=O)C[C@@](O)(C(=O)CO)C[C@@H]3O[C@H]1C[C@H](N)[C@H](O)[C@H](C)O1
6.44%

Field entry: CC(=O)C1C(c2ccc(N(C)C)cc2)c2c(C)nc3sc(C(=O)Nc4ccc(Cl)cc4)c(N)c3c2CC1(C)O (stereo not shown)
15.82%

Field entry: CCOC(=O)CSc1nc(C)c2c(c1C#N)CC(C)(O)C(C(C)=O)C2c1ccc(N(C)C)cc1 (stereo not shown)
29.03%

Field entry: CC(=O)C1C(c2ccc(N(C)C)cc2)c2c(C)nc(SCC(=O)Nc3ccc(C)cc3)c(C#N)c2CC1(C)O (stereo not shown)
27.61%

###

- Test system: MCF7 cell line
- experimentalProtocol: In vitro cytotoxic activity, MTT method, MCF7
- Assay type: cell-based, human
- settings: MCF7, 0.391 µMol
Provide the reported Viability % of each item.
Your answer is read as %, so omit the unit and give the number.

Given the entry CC(=O)C1C(c2ccc(N(C)C)cc2)c2c(C)[nH]c(=S)c(C#N)c2CC1(C)O (stereo not shown) , report its measured Viability %.
91.95

Field entry: CSc1nc(C)c2c(c1C#N)CC(C)(O)C(C(C)=O)C2c1ccc(N(C)C)cc1 (stereo not shown)
61.19

Field entry: CC(=O)C1C(c2ccc(N(C)C)cc2)c2c(C)nc(SCC(=O)Nc3ccccc3)c(C#N)c2CC1(C)O (stereo not shown)
91.95

Field entry: CC(=O)C1C(c2ccc(N(C)C)cc2)c2c(C)nc(SCC(=O)Nc3ccc(C)cc3)c(C#N)c2CC1(C)O (stereo not shown)
60.38
